SUBJECT OF TEST: T1, hRET.mFc (human)
T1 construct: also called dimeric human RET
MEASUREMENT DESCRIPTION: SPR Biacore T200, mAb capture, 25 C
RECORDED METRIC: koff

H4H8046P (antibody, human IgG4, V domains shown, human IgG4 Fc (H4H prefix)) VH: QVQLVQSRDEVKKPGASVKVSCKASGYTFTTYGISWVRQAPGQGLEWMGWINTYNGDTNYAQKVQDRVIMTTDTSTSTAYMELRSLRSDDTAVYFCAGARPLGGRRAFDIWGQGTMVTVSS VL: DIQMTQSPSSLSASVGDRVTITCRASQGISHYLAWYQQKPGKVPKLLIYAASTLQSGVPSRFSGSGSGTDFTLTISSLQPEDVATYYCQKYNSVPWTFGQGTKVEIK : 0.000181 s⁻¹
H4H8083P (antibody, human IgG4, V domains shown, human IgG4 Fc (H4H prefix)) VH: QVQLVESGGGVVQPGRSLRLSCAASGFTFNNYVMHWVRQAPGKGLEWVALIWYDGSNKYYADSVKGRFTISRDNSKNALNLQMNSLRAEDTAVYFCARVSIAARNYYYGGLDVWGQGTTVTVSS VL: EIVLTQSPGTLSLSPGERATLSCRASQSVSSTYLAWYQQKPGQAPRLLIYGASSRATGIPDRFSGSGSGTDFTLTISRLEPEDFAVYYCQHYGGSPLTFGGGTKVEIK : 0.000224 s⁻¹
H4H8085P (antibody, human IgG4, V domains shown, human IgG4 Fc (H4H prefix)) VH: QVQLVESGGGVVQPGRSLRLSCTASGFTFDNYGMHWVRQAPGKGLEWVAVISYDGSNTFYADSVKGRFTISRDNSKNALYLQMNSLRAEDTAVYYCAKDLEFDILIGYPFDSWGRGTLVTVSS VL: DIQLTQSPSFLSASVGDRVTITCWASQDISRYLAWYQQKPGKAPNLLIYAASTLQSGVPSRFSGSGSGTEFTLTINSLQPEDFATYYCQQLFSYPRTFGQGTKVEIK : 0.000125 s⁻¹
H4H8087P (antibody, human IgG4, V domains shown, human IgG4 Fc (H4H prefix)) VH: QVQLVESGGGVVQPGRSLRLSCAASGFSFSSYGMHWVRQAPGKGLEWVAVMWYDGSNEYYADSVKGRFIISRDNSKSTLYLEMNSLRAEDTALYYCAREDWDEGYYYGMDVWGQGTTVTVSS VL: DIQMTQSPSSLFASVGDRVTITCRASQDIRYDLGWYQQKPGKAPKRLIYASSILESGVPSRFSGSGSGTEYTLTISTLQSEDFAIYYCLQHNSFPWTFGQGTKVEIK : 0.000107 s⁻¹
